Target: Lyn(h) (Homo sapiens)
Sequence (P07948 2-512 limits assumed): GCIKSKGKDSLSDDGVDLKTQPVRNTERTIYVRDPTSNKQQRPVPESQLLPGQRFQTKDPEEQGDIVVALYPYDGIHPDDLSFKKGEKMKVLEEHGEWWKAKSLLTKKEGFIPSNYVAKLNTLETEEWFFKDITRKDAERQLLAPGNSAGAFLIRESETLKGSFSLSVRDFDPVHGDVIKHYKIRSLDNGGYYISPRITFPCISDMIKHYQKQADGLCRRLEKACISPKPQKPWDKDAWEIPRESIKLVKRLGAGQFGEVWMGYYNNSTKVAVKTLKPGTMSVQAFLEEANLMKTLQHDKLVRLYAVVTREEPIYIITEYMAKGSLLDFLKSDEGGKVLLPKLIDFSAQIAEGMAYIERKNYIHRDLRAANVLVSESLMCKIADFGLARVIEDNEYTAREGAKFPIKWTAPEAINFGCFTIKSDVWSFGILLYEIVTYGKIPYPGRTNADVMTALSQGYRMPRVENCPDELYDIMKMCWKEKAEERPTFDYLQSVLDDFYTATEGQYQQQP
Assay: Lyn(h) kinase assay
Format: biochemical
Conditions: 3 μM; percent of control kinase activity
observed_property: Inhibitory activity (% of control), Lyn(h)

Use the examples below as a reference point.
Fc1ccc(-c2n[nH]c3ccc(-c4n[nH]c(C5CCCC5)n4)cc23)cc1 [CC006, reference compound]
23 % of control
CC(C)(C)Cc1nc(-c2ccc3[nH]nc(-c4ccc5cc(OCc6ccccn6)ccc5c4)c3c2)n[nH]1
62 % of control
O=C(NC1CCCC1)c1cccc(-c2n[nH]c3ccc(-c4nc[nH]n4)cc23)c1 [CC007, reference compound]
61 % of control
CC(C)Cc1nc(-c2ccc3[nH]nc(-c4ccc5cc(OCCN6CCCC6)ccc5c4)c3c2)n[nH]1
2 % of control

Which Inhibitory activity (% of control), Lyn(h) value is on record for `COc1ccc2cc(-c3n[nH]c4ccc(-c5n[nH]c(CN6CCOCC6)n5)cc34)ccc2c1` ?
5 % of control
